targetOfAssay: BRD4 bromo domain 1 [BRD4(1)] (Homo sapiens, UniProt O60885)
Construct: N-terminally His6-tagged BRD4(1) (amino acids 67-152)
testName: BRD4/acetylated peptide H4 binding assay (TR-FRET), BRD4 bromo domain 1
measurementSetup: inhibition of BRD4(1)/Ac-H4 peptide interaction
pIC50: −log10 of the molar value.
# pIC50 binned as lowest = under 6, middle = from 6 up to 7, highest = 7 and over

C[C@@H]1C(=O)N(C)c2ccc(Nc3cccc(S(=O)(=O)N4CC(F)(F)C4)c3)nc2N1C1CCOCC1	highest
COCCN1c2nc(Nc3cccc(C(=O)N4CCN(C)CC4)c3)ccc2N(C)C(=O)[C@@H]1C (stereo in doubt)	lowest
C[C@@H]1C(=O)N(C)c2ccc(Nc3cccc(S(=O)(=O)N4CCN(C)CC4)c3)cc2N1C1CCOCC1	middle
C[C@@H]1C(=O)N(C)c2ccc(Nc3cccc(C(=O)NC4CCN(C)CC4)c3)nc2N1C1CCN(C(=O)OC(C)(C)C)CC1	middle

[Q] Dear colleague, I would appreciate it if you could identify the bin for COCCN1c2nc(Nc3cccc(S(=O)(=O)N4CCOCC4)c3)ccc2N(C)C(=O)[C@@H]1C (stereo in doubt) and reply at your convenience.
[A] lowest

[Q] The entry to classify is CC1C(=O)N(C)c2ccc(Nc3cccc(S(=O)(=O)N4CCN(C)CC4)c3)nc2N1c1ccc(N2CCN(C(=O)OC(C)(C)C)CC2)cc1 (centres unmarked) ; which class holds it?
[A] lowest
